- measuredOn: Nuclear receptor subfamily 1 group I member 3 (Homo sapiens) (UniProt Q14994)
- Sequence (Q14994 whole entry, looked up): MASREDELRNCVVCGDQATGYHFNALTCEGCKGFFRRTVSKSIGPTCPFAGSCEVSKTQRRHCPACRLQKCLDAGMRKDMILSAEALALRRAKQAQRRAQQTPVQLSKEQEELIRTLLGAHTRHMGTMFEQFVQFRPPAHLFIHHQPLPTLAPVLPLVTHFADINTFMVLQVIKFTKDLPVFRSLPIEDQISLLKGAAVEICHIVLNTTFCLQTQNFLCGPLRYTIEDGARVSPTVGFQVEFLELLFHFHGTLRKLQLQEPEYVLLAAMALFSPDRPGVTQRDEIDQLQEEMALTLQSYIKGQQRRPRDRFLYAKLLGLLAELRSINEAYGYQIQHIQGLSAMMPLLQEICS
- protocolDetails: qHTS assay to identify small molecule agonists of the constitutive androstane receptor (CAR) signaling pathway (AID 1224839); note: nearly all actives have a fitted effect of over 15% in size;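 for activation: HepG2 cells stably carrying human CAR and a CYP2B6 luciferase reporter; % is set by controls: 0 for no effect and ±100 for the full control effect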
- testParameters: HepG2 hCAR CYP2B6-luciferase, agonist mode, 24 h; series mostly up to 92.4 µM
Results filed as inconclusive are left out. Activity calls are given as the source filed them. Calls come from the whole dose curve; as a rule, active = well fitted activation curve with a large enough effect in the repeat runs; inconclusive = weak or mixed curves; inactive = no such curve, though single readings can be large or run the other way.
Give one outcome, nothing more. List: active, inactive

Consider the worked cases shown below.
{"compound": "Cc1cc(O)c(C(C)C)cc1Cl", "cat": "inactive"}
{"compound": "O=C(N/N=C/c1ccc([N+](=O)[O-])o1)c1ccc(O)cc1", "cat": "inactive"}
{"compound": "C=CC(=C)CCCC(C)(C)OC(C)=O", "cat": "inactive"}
{"compound": "O=C(Nc1ccccc1)Nc1ccccc1", "cat": "active"}
{"compound": "C1COCO1", "cat": "inactive"}

Challenge: Hey, what did the test say about CN1C(=O)CC(C)(c2ccccc2)C1=O (configuration not stated) ?
Response given: inactive

Challenge: Hey, what did the test say about C=CC(C)(C)CC(=O)OC ?
Response given: inactive

Challenge: Hey, what did the test say about NC(=O)N(O)[C@@H]1COc2cc(OCc3ccccc3)ccc21 ?
Response given: active

Challenge: Hey, what did the test say about CC1=CC(=O)CC(C)(C)C1(O)/C=C/C(C)=C\C(=O)O (configuration not stated) ?
Response given: inactive

Challenge: Hey, what did the test say about Fc1ccccc1[C@@H](F)COC1CCC(Nc2ncnc3[nH]ncc23)CC1 (some centres not stated) ?
Response given: inactive

Challenge: Hey, what did the test say about C=CC(C)(O)CCCC(C)CCCC(C)CCCC(C)C (configuration not stated) ?
Response given: inactive

Challenge: Hey, what did the test say about CC1(C)O[C@@H]2C[C@H]3[C@@H]4CCC5=CC(=O)C=C[C@]5(C)[C@H]4[C@@H](O)C[C@]3(C)[C@]2(C(=O)CO)O1 ?
Response given: inactive

* * *

- protocolDetails: qHTS assay to identify small molecule antagonists of the constitutive androstane receptor (CAR) signaling pathway - cell viability counter screen (AID 1224837); note: % is set by controls: 0 for no effect and ±100 for the full control effect; nearly all actives have a fitted effect of over 45% in size
- testParameters: HepG2-CYP2B6-hCAR viability, CellTiter-Fluor, 23 h, co-treated with 50 nM CITCO; series mostly up to 92.4 µM
Records with an inconclusive call do not appear. Active and inactive are the calls of the source. Calls come from the whole dose curve; as a rule, active = well fitted cell-killing curve with a large enough effect in the repeat runs; inconclusive = weak or mixed curves, or effect the other way; inactive = flat fitted curve, though single readings scatter.
Readings of activity change, negative = cytotoxicity for the listed compounds

# example entries with known answers
{"smilesStructure": "CCCC(=O)O[C@]1(C(=O)COC(=O)CC)CC[C@H]2[C@@H]3CCC4=CC(=O)CC[C@]4(C)[C@H]3[C@@H](O)C[C@@]21C", "activity change, negative = cytotoxicity": "6.46% [at 19 µM] (inactive)"}
{"smilesStructure": "[O]=[Bi]", "activity change, negative = cytotoxicity": "-5.97% [at 8.39 µM] (inactive)"}
{"smilesStructure": "C=CCCCCCCCCCCCCCCCC", "activity change, negative = cytotoxicity": "3.23% [at 8.39 µM] (inactive)"}
{"smilesStructure": "CN1CCN(c2c(F)cc3c(=O)c(C(=O)O)cn4c3c2OCN4C)CC1", "activity change, negative = cytotoxicity": "-2.88% [at 19 µM] (inactive)"}

--- query ---
Challenge: Given CCCCCCCCCCCCCCCCBr , respond with its activity change, negative = cytotoxicity.
Response given: -0.0926% [at 19 µM] (inactive)

* * *

- protocolDetails: qHTS assay to identify small molecule agonists of H2AX (AID 1224845); note: % is set by controls: 0 for no effect and ±100 for the full control effect
- testParameters: CHO-K1 phospho-H2AX Ser139 HTRF, 3 h; series mostly up to 154 µM
- Source text: National Center for Advancing Translational Sciences [NCATS] NIH Chemical Genomics Center [NCGC] U.S. Environmental Protection Agency [EPA] National Institutes of Environmental Health Sciences [NIEHS] National Toxicology Program [NTP] U.S. Food and Drug Administration [FDA] HTRF phospho-H2AX (Ser139) assay (Cisbio Bioassays, US) enables the quantitative detection of the histone variant H2AX when phosphorylated on serine 139. […]
Results filed as inconclusive are left out. Active and inactive are the calls of the source. Calls follow the shape of the dose curve; as a rule, active = well fitted activation curve with a large enough effect in the signal ratio in the repeat runs (not every such curve was filed as active); inconclusive = weak or mixed curves; inactive = flat fitted curve, though single readings scatter; the % refers to the signal ratio.
observationType: activation (H2AX phosphorylation)

{"smilesStructure": "CCCCCCCCCCCCCCCCBr", "activation (H2AX phosphorylation)": "-0.41% [at 31.6 µM] (inactive)"}
{"smilesStructure": "C=CCOC(=O)/C=C\\C(=O)OCC=C", "activation (H2AX phosphorylation)": "inactive"}
{"smilesStructure": "CC(=O)[C@H]1CC[C@H]2[C@@H]3C=CC4=CC(=O)CC[C@@]4(C)[C@@H]3CC[C@]12C", "activation (H2AX phosphorylation)": "inactive"}
{"smilesStructure": "CC(=O)OCC(=O)[C@@]12OC(C)(C)O[C@@H]1C[C@H]1[C@@H]3C[C@H](F)C4=CC(=O)C=C[C@]4(C)[C@@]3(F)[C@@H](O)C[C@@]12C", "activation (H2AX phosphorylation)": "inactive"}

Challenge: Given C/C(=N/NC(=O)c1ccncc1)C(=O)O , respond with its activation (H2AX phosphorylation).
Response given: inactive

* * *

- protocolDetails: qHTS assay to identify small molecule antagonists of the estrogen receptor beta (ER-beta) signaling pathway - cell viability counter screen (AID 1259382); note: nearly all actives have a fitted effect of over 55% in size
- testParameters: ER-beta-UAS-bla HEK293T viability, CellTiter-Glo luminescence, 16 h; series mostly up to 92.4 µM
Results filed as inconclusive are left out. Calls of active or inactive are those of the source. The call rests on the fitted dose curve; in most records, active means well fitted cell-killing curve with a large enough effect in the repeat runs; inconclusive means weak or mixed curves; inactive means flat fitted curve, though single readings scatter.
Give one outcome, nothing more. List: TRUE for active, FALSE for inactive

Consider the worked cases shown below.
{"compound": "C=CC(C)(O)CCCC(C)CCCC(C)CCCC(C)C (stereo not drawn)", "cat": "FALSE"}
{"compound": "CC1CC(=O)NN=C1c1ccc(NCC(C)(C)NCC(O)COc2cc(Cl)ccc2C#N)cc1 (stereo not drawn)", "cat": "FALSE"}
{"compound": "Cc1oc(C)c(C(=O)Nc2ccccc2)c1C", "cat": "FALSE"}
{"compound": "CSc1ccc(Oc2ccc(S(N)(=O)=O)cc2CN(C)C)cc1C", "cat": "TRUE"}

Challenge: Hey, what did the test say about OC/C(Br)=C(\Br)CO ?
Response given: FALSE

Challenge: Hey, what did the test say about CCCC1C(CC)=CC(CC)=CN1c1ccccc1 (stereo not drawn) ?
Response given: FALSE

Challenge: Hey, what did the test say about CCn1nc(C)c2c1C(=O)NCC(c1ccc(O)cc1)=N2 ?
Response given: FALSE

Challenge: Hey, what did the test say about C/C=C/C=C/CCCCCCCO ?
Response given: FALSE

Challenge: Hey, what did the test say about CC1=NN(c2ccc(C(=O)O)cc2)C(=O)C1 ?
Response given: FALSE

* * *

- protocolDetails: qHTS assay to identify small molecule agonists of the estrogen receptor alpha (ER-alpha) signaling pathway in the presence of an antagonist - cell viability counter screen (AID 1259386);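 note: cells exposed to compounds for 22 h at 37 °C before the viability read; % is set by controls: 0 for no effect and ±100 for the full control effect; nearly all actives have a fitted effect of over 30% in size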
- testParameters: VM7Luc4E2 viability, CellTiter-Fluor fluorescence, 22 h; series mostly up to 92.4 µM
Results filed as inconclusive are left out. Calls of active or inactive are those of the source. The call rests on the fitted dose curve; in most records, active means well fitted cell-killing curve with a large enough effect in the repeat runs; inconclusive means weak or mixed curves, or effect the other way; inactive means no such curve, though single readings can be large or run the other way.
observationType: outcome

# example entries with known answers
{"compound": "CC(=O)Oc1ccc(C(=C2CCCCC2)c2ccc(OC(C)=O)cc2)cc1", "outcome": "inactive"}
{"compound": "CCC(=O)Oc1ccc(/C(CC)=C(\\CC)c2ccc(OC(=O)CC)cc2)cc1", "outcome": "inactive"}
{"compound": "C/C=C(\\C)C(=O)OCCC(C)CCC=C(C)C (stereo unspecified)", "outcome": "inactive"}
{"compound": "C[C@]12CCC(=O)C=C1C=C[C@@H]1[C@@H]2CC[C@@]2(C)[C@H]1CC[C@@]21CCC(=O)O1", "outcome": "inactive"}
{"compound": "O=C(Nc1ccccc1)Nc1ccccc1", "outcome": "inactive"}

Challenge: Given COC(=O)[C@@H]1CC2=CC(=O)CC[C@]2(C)[C@@]23O[C@@H]2C[C@@]2(C)[C@@H](CC[C@@]24CCC(=O)O4)[C@H]13 , respond with its outcome.
Response given: inactive

Challenge: Given C[Si]1(C)O[Si](C)(C)O[Si](C)(C)O1 , respond with its outcome.
Response given: inactive

* * *

- measuredOn: Androgen receptor (Homo sapiens) (UniProt P10275)
- Sequence (P10275 whole entry, looked up): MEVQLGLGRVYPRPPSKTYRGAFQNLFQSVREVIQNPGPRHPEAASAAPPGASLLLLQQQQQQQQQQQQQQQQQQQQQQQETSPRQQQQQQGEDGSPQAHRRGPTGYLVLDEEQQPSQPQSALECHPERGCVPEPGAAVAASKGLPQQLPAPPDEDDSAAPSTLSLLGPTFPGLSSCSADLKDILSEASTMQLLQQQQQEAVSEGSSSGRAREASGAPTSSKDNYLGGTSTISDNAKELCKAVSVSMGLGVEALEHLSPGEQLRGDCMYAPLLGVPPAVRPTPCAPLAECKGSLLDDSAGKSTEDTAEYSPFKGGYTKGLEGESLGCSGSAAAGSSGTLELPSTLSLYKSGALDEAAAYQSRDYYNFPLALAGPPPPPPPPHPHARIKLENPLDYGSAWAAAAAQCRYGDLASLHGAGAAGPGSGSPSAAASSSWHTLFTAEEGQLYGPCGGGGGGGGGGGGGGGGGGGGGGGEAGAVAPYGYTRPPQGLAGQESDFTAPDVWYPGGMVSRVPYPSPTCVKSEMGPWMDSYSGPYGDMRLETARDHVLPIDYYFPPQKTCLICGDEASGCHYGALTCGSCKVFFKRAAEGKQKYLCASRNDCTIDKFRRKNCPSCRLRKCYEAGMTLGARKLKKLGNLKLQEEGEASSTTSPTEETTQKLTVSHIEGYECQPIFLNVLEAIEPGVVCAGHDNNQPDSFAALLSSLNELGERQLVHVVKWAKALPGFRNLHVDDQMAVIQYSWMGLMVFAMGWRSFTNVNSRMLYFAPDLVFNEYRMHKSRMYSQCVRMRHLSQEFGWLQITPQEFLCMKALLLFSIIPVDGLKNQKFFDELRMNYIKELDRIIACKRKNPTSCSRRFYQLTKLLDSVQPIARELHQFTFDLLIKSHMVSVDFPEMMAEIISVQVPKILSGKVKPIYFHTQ
- protocolDetails: qHTS assay to identify small molecule agonists of the androgen receptor (AR) signaling pathway in the presence of an antagonist (AID 1259381); note: nearly all actives have a fitted effect of over 15% in size
- testParameters: MDA-kb2 MMTV-luciferase, AR agonist + nilutamide, 16 h; series mostly up to 42.5 µM
Calls of active or inactive are those of the source. Calls follow the shape of the full dose curve.
Give one outcome, nothing more. List: active, inactive

{"compound": "COc1ccc([C@@H]2Sc3ccccc3NC(=O)[C@@H]2O)cc1", "cat": "inactive"}
{"compound": "C=CCNc1nc(NCC=C)nc(N2CCN(C(c3ccc(F)cc3)c3ccc(F)cc3)CC2)n1", "cat": "inactive"}
{"compound": "CNC(=S)NC", "cat": "inactive"}
{"compound": "O=[N+]([O-])c1cccc(S(=O)(=O)NCCNS(=O)(=O)c2cccc([N+](=O)[O-])c2)c1", "cat": "inactive"}
{"compound": "C[Si]1(C)O[Si](C)(C)O[Si](C)(C)O1", "cat": "inactive"}
{"compound": "CCC(C(=O)OCCN(CC)CC)c1ccccc1 (stereo not drawn)", "cat": "inactive"}
{"compound": "Cc1c(C(=O)NN2CCCCC2)nn(-c2ccc(Cl)cc2Cl)c1-c1ccc(Cl)cc1", "cat": "inactive"}
{"compound": "CC(C)=CC=O", "cat": "inactive"}

Challenge: Hey, what did the test say about CC(C)(C)CC(C)(C)c1ccc(OCCO)cc1 ?
Response given: inactive

Challenge: Hey, what did the test say about O=C(CCCCCCCCC#CI)Oc1ccccc1 ?
Response given: inactive

Challenge: Hey, what did the test say about CC1(C)C2=CCCC(C)(C)[C@]23CC[C@H]1C3 ?
Response given: inactive

Challenge: Hey, what did the test say about Cc1cc(O)c2c(O)c3c(O)cccc3cc2c1 ?
Response given: inactive

Challenge: Hey, what did the test say about O=C(N/N=C/c1ccc([N+](=O)[O-])o1)c1ccc(O)cc1 ?
Response given: inactive

Challenge: Hey, what did the test say about CC1=NN(c2ccc(C(=O)O)cc2)C(=O)C1 ?
Response given: inactive

Challenge: Hey, what did the test say about COc1ccc(CCC(=O)c2c(O)cc(O[C@@H]3O[C@H](CO)[C@@H](O)[C@H](O)[C@H]3O[C@@H]3O[C@@H](C)[C@H](O)[C@@H](O)[C@H]3O)cc2O)cc1O ?
Response given: inactive

Challenge: Hey, what did the test say about CCOC(=O)CC(=O)C(=O)OCC ?
Response given: active

Challenge: Hey, what did the test say about Cn1c(=O)c2c(ncn2CC(=O)O)n(C)c1=O ?
Response given: inactive

Origin of values: PubChem BioAssay (Tox21)
